Test system: endometrial stromal T HESC cells
Assay: MTT reduction assay, cell viability
Format: cell-based, human
Details: Homo sapiens; T HESC cells, 48-h incubation, MTT
Procedure: The effect of resveratrol and its natural analogs on the viability of endometriotic epithelial 12Z cells and endometrial stromal T HESC cells was assessed using the MTT assay. […] Cell viability and metabolic activity were determined using the MTT colorimetric assay, according to the protocol described in previous studies. Based on the obtained data, the dose–response curves were plotted, and inhibitory concentrations (IC) were calculated. […]
testReadout: pIC50
Worth noting: pIC50 values are minus log10 of concentrations stated in mol/L.

Oc1cc(O)cc(C=Cc2ccc(O)c(O)c2)c1 [Piceatannol, 3,3′,4,5′-tetrahydroxystilbene]    3.44
COc1cc(C=Cc2ccc(O)cc2)cc(OC)c1 [Pterostilbene, 3,5-dimethoxy-4′-hydroxystilbene]    3.84

The compound listed as Oc1ccc(/C=C/c2cc(O)cc(O)c2)cc1 shows pIC50 equal to 3.60
